Measured Human CP IC50, hemolysis assay, 5% NHS of individual entries
Assay target: human C5 (human, UniProt P01031 19-1676)
Test protocol: cell-based or functional assay
// units = nM; emit number, no label

H4H12166P4 (antibody, human IgG4, V domains shown, histidine-mutated CDR variant of H4H12166P; human IgG4 (S108P)) VH: QVQLQESGPGLVKPSETLSLTCTVSGDSVSSSYWTWIRQPPGKGLEWIGYIYYSGSSNYNPSLKSRATISVDTSKNQFSLKLSSVTAADTAVYYCAREGNVDTTMIFDYWGQGTLVTVSS VL: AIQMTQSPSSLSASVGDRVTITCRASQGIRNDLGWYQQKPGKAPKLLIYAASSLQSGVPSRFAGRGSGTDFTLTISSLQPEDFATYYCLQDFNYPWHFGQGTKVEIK = 13.2
H4H12166P6 (antibody, human IgG4, V domains shown, histidine-mutated CDR variant of H4H12166P; human IgG4 (S108P)) VH: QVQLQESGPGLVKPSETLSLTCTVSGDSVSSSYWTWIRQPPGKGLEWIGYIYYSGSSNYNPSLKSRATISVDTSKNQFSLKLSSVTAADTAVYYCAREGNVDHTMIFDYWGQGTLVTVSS VL: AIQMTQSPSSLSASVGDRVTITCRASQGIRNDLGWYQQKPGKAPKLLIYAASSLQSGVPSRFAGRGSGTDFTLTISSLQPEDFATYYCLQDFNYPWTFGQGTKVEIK = 10.3
H4H12166P9 (antibody, human IgG4, V domains shown, histidine-mutated CDR variant of H4H12166P; human IgG4 (S108P)) VH: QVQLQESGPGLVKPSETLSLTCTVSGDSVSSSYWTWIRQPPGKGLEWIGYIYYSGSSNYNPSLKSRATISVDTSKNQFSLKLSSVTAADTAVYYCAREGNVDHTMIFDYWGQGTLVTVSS VL: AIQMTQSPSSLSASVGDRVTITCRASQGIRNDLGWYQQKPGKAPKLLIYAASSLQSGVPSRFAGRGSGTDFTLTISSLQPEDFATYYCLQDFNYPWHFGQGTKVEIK = 11.6
H4H12166P8 (antibody, human IgG4, V domains shown, histidine-mutated CDR variant of H4H12166P; human IgG4 (S108P)) VH: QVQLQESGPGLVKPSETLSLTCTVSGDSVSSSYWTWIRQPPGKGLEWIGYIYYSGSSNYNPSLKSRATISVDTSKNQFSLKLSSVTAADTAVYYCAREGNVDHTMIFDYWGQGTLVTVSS VL: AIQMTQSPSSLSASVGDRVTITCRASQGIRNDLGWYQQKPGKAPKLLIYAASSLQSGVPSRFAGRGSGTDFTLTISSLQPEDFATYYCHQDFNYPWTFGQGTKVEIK = 14.1

Would you kindly share the measured Human CP IC50, hemolysis assay, 5% NHS for H4H12166P10 (antibody, human IgG4, V domains shown, histidine-mutated CDR variant of H4H12166P; human IgG4 (S108P)) VH: QVQLQESGPGLVKPSETLSLTCTVSGDSVSSSYWTWIRQPPGKGLEWIGYIYYSGSSNYNPSLKSRATISVDTSKNQFSLKLSSVTAADTAVYYCAREGNVDTTMIHDYWGQGTLVTVSS VL: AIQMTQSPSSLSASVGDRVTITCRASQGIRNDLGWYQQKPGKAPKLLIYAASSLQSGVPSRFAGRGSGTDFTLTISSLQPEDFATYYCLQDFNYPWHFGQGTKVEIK ?
44.4

Would you kindly share the measured Human CP IC50, hemolysis assay, 5% NHS for H4H12166P5 (antibody, human IgG4, V domains shown, histidine-mutated CDR variant of H4H12166P; human IgG4 (S108P)) VH: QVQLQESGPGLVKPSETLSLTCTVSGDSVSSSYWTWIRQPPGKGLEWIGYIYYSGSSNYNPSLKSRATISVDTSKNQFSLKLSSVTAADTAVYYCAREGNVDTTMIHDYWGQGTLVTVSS VL: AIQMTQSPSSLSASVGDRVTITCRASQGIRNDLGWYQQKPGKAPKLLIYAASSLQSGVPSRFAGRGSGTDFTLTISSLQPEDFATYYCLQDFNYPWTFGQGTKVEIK ?
14.9

Would you kindly share the measured Human CP IC50, hemolysis assay, 5% NHS for H4H12166P2 (antibody, human IgG4, V domains shown, histidine-mutated CDR variant of H4H12166P; human IgG4 (S108P)) VH: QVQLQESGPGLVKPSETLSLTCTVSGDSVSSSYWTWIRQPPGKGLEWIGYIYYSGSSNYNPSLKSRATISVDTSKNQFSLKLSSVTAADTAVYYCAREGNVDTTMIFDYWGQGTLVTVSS VL: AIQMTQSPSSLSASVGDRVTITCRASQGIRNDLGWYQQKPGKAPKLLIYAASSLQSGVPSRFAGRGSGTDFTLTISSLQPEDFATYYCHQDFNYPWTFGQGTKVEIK ?
15.9

Would you kindly share the measured Human CP IC50, hemolysis assay, 5% NHS for H4H12166P7 (antibody, human IgG4, V domains shown, histidine-mutated CDR variant of H4H12166P; human IgG4 (S108P)) VH: QVQLQESGPGLVKPSETLSLTCTVSGDSVSSSYWTWIRQPPGKGLEWIGYIYYSGSSNYNPSLKSRATISVDTSKNQFSLKLSSVTAADTAVYYCAREHNVDTTMIFDYWGQGTLVTVSS VL: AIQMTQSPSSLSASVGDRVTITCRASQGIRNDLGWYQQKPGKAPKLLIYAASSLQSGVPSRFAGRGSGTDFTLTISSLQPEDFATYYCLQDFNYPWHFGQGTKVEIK ?
24.3
